# experimental-target: JAK-1 (Homo sapiens)
# Sequence (P23458 whole entry): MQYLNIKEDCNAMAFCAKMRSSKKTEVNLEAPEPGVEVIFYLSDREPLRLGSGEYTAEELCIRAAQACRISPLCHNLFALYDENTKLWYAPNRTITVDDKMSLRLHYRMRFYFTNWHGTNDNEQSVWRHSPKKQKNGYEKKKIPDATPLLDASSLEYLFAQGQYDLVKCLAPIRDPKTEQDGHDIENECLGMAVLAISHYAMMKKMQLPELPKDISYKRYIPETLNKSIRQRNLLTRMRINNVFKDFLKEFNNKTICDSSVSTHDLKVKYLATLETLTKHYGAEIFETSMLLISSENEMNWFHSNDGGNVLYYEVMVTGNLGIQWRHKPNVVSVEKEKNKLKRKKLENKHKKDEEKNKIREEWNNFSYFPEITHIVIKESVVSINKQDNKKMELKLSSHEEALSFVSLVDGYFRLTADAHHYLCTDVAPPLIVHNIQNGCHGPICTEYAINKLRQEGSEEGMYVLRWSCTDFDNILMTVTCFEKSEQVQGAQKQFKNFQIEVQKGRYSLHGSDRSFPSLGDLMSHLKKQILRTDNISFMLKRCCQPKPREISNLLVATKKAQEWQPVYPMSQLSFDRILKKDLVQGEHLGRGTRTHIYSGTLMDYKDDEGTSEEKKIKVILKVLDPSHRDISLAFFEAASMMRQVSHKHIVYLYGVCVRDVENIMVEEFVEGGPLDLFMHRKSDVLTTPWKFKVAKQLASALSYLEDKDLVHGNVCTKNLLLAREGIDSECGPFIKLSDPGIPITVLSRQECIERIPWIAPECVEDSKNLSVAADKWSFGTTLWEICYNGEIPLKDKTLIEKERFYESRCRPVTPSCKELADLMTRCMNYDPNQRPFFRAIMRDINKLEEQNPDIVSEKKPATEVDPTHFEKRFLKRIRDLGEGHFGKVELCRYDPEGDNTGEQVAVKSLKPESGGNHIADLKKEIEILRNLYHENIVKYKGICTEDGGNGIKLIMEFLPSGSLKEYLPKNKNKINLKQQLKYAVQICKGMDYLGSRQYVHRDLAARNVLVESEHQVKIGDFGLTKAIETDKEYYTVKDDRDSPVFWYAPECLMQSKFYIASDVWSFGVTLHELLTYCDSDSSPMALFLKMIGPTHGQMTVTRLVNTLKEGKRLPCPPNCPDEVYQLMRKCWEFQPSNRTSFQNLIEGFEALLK
# test-details: JAK enzymatic assay (Eurofins KinaseProfiler/IC50Profiler, radiometric), JAK-1
# cond: selectivity IC50 ratio for JAK1 versus JAK2, human enzymes
measured-parameter: JAK1/JAK2 selectivity
Please state the value as a number alone, without comment.

May I ask what JAK1/JAK2 selectivity has been recorded for O=C(CN1CCN(c2nc[nH]c3nccc2-3)CC1)N1CCN(C(=O)Nc2ccccc2)CC1 ? 19

May I ask what JAK1/JAK2 selectivity has been recorded for CCCCNS(=O)(=O)c1ccc(NC(=O)CN2CCN(c3ncnc4[nH]ccc34)CC2)cc1 ? 9

May I ask what JAK1/JAK2 selectivity has been recorded for CC(C)NS(=O)(=O)c1ccc(NC(=O)[C@@H](C)N2CCN(c3ncnc4[nH]ccc34)CC2)cc1 ? 4

May I ask what JAK1/JAK2 selectivity has been recorded for CN(C)S(=O)(=O)c1cc(NC(=O)CN2CCN(c3nc[nH]c4nccc3-4)CC2)ccc1Cl ? 23
